Test system: NF-κB pathway (SEAP) in THP1-Dual cells
Measurement description: THP-1 Dual cell SEAP assay (L18-MDP stimulated)
Format: cell-based
Experimental parameters: Homo sapiens, THP1-Dual, read-out: NFkB THP1 IC50
pIC50: −log10 of the molar value.
Measured parameter: pIC50

Known pIC50 results, listed for orientation:
[
  {
    "Compound smiles": "COc1cc2ncc(-c3cc(F)nc(NCC4CCN(C(C)=O)CC4)c3)n2cc1S(=O)(=O)C(C)(C)C",
    "pIC50": "> 7.30"
  },
  {
    "Compound smiles": "COc1cc2ncc(-c3cc(OC)c(N)nc3F)n2cc1S(=O)(=O)C(C)(C)C",
    "pIC50": "< 6.00"
  },
  {
    "Compound smiles": "COc1cc2ncc(-c3cc(C#N)c(N)cc3F)n2cc1S(=O)(=O)C(C)(C)C",
    "pIC50": "6.00 to 6.60"
  },
  {
    "Compound smiles": "CCCS(=O)(=O)Nc1cc(-c2cnc3cc(OC)c(S(=O)(=O)C(C)(C)C)cn23)cc(OC(F)(F)F)c1F",
    "pIC50": "< 6.00"
  },
  {
    "Compound smiles": "CC(C)(C)S(=O)(=O)c1ccc2ncc(-c3cc(F)nc(NCCC4(O)CCC4)c3)n2c1",
    "pIC50": "> 7.30"
  }
]

What value of pIC50 has been recorded for this entry: "CCCS(=O)(=O)Nc1cc(OC)cc(-c2cnc3cc(OC)c(S(=O)(=O)C(C)(C)C)cn23)c1"
> 7.30

Record: "COc1cc2ncc(-c3ccc(N4CCCC4=O)nc3)n2cc1S(=O)(=O)C(C)(C)C"
< 6.00

Cool, now "COc1cc2ncc(-c3cc(F)c(OC)c(CCO)c3)n2cc1S(=O)(=O)C(C)(C)C"
6.00 to 6.60

----------
Entries and their measured IC50 follow.
Target: GST-RIPK2 fusion protein (human RIPK2 amino acids 1-310) (Homo sapiens (Human))
Measurement description: RIPK2 binding competition assay (TR-FRET, Tracer 199)
Experimental parameters: read-out: RIPK2 IC50; RIPK2 binding competition assay

Example results:
[
  {
    "Compound smiles": "CCCS(=O)(=O)Nc1cc(-c2cnc3cc(OC)c(S(=O)(=O)C(C)(C)C)cn23)cnc1N",
    "Result": "> 0.02 µM"
  },
  {
    "Compound smiles": "COc1cc2ncc(-c3cc(Cl)nc(Cl)c3)n2cc1S(=O)(=O)C(C)(C)C",
    "Result": "> 0.02 µM"
  }
]

IC50 for "CCOc1cc2ncc(-c3cc(F)nc(NCCCO)c3)n2cc1C1(F)CCN(C)CC1" ?
< 0.001 µM

----------
System: NF-κB pathway (SEAP) in THP1-Dual cells
Measurement description: THP-1 Dual cell SEAP assay (L18-MDP stimulated)
Assay type: cell-based
Experimental parameters: Homo sapiens, THP1-Dual, read-out: NFkB THP1 IC50
pIC50: −log10 of the molar value.
Measured parameter: pIC50

[
  {
    "Compound": "COc1cc2ncc(-c3cc(F)c(N)nc3F)n2cc1S(=O)(=O)C(C)(C)C(F)F",
    "Target": "NF-κB pathway (SEAP) in THP1-Dual cells",
    "pIC50": "6.60 to 7.30"
  },
  {
    "Compound": "COc1cc2ncc(-c3cc(Cl)c(N)nc3OC)n2cc1S(=O)(=O)C(C)(C)C",
    "Target": "NF-κB pathway (SEAP) in THP1-Dual cells",
    "pIC50": "6.00 to 6.60"
  }
]

Reported pIC50 for "COc1cc2ncc(-c3cc(N)c(C)c(F)c3)n2cc1S(=O)(=O)C(C)(C)C" : what is it?
< 6.00

Next compound: COc1cc2ncc(-c3cc(F)nc(NC4CCC(O)CC4)c3)n2cc1S(=O)(=O)C(C)(C)C (centres unmarked)
6.60 to 7.30

"CCCS(=O)(=O)Nc1cc(OC)cc(-c2cnn3ccc(S(=O)(=O)C(C)(C)C)cc23)c1" ?
6.00 to 6.60

Would you mind doing "COc1cc2ncc(-c3ccc(S(N)(=O)=O)cc3)n2cc1S(=O)(=O)C(C)(C)C" as well?
< 6.00

Same lookup for "CCCS(=O)(=O)Nc1cc(-c2cnc3cc(OC)c(S(=O)(=O)C4CC4)cn23)cc(OC)c1OC" , please.
6.60 to 7.30

----------
Listed compounds paired with reported IC50
System: NF-κB pathway (SEAP) in THP1-Dual cells
Measurement description: THP-1 Dual cell SEAP assay (L18-MDP stimulated)
Type: cell-based
Experimental parameters: Homo sapiens, THP1-Dual, read-out: NFkB THP1 IC50

Previously resolved entries follow.
[
  {
    "Compound": "COc1cc2ncc(-c3cc(N)c(OC(F)F)c(F)c3)n2cc1S(=O)(=O)C(C)(C)C",
    "IC50": "50 to 250 nM"
  },
  {
    "Compound": "CCCS(=O)(=O)Nc1cc(-c2cnn3ccc(S(=O)(=O)C(C)(C)C)cc23)ccc1OC",
    "IC50": "250 to 1000 nM"
  },
  {
    "Compound": "CCCS(=O)(=O)Nc1cc(OC(F)(F)F)cc(-c2cnc3cc(OC)c(S(=O)(=O)C(C)(C)C)cn23)c1",
    "IC50": "> 1000 nM"
  },
  {
    "Compound": "COc1cc2ncc(-c3cc(F)nc(NC[C@H]4CCNC(=O)C4)c3)n2cc1S(=O)(=O)C(C)(C)C (single isomer, unassigned)",
    "IC50": "< 50 nM"
  },
  {
    "Compound": "CCCS(=O)(=O)Nc1cc(F)cc(-c2cnc3cc(OC)c(S(=O)(=O)C(C)(C)C)cn23)c1F",
    "IC50": "> 1000 nM"
  }
]

Field request: IC50 | item: "COc1cc2ncc(-c3ccnc(N)c3)n2cc1S(=O)(=O)C(C)(C)C"
250 to 1000 nM

Next entry: "COc1cc2ncc(-c3cc(F)nc(N[C@H](C)CO)c3)n2cc1S(=O)(=O)C(C)(C)C"
< 50 nM

And for "COc1cc(N)ncc1-c1cnc2cc(OC)c(S(=O)(=O)C(C)(C)C)cn12" ?
> 1000 nM

----------
Target: GST-RIPK2 fusion protein (human RIPK2 amino acids 1-310) (Homo sapiens (Human), UniProt O43353)
Sequence (O43353 1-310): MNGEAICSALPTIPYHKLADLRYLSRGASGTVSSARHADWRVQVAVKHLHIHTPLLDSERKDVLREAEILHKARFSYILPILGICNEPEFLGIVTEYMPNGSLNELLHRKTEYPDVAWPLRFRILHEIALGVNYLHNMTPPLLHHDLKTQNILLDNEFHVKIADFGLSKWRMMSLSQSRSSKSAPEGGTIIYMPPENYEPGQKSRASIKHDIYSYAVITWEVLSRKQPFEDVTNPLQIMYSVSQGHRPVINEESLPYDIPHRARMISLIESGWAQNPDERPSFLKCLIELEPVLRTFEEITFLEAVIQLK
Measurement description: RIPK2 binding competition assay (TR-FRET, Tracer 199)
Experimental parameters: read-out: RIPK2 IC50; RIPK2 binding competition assay
pIC50: −log10 of the molar value.
Quick reference for pIC50 among some compounds

Completed entries (count: 5):
[
  {
    "Compound smiles": "CCCS(=O)(=O)Nc1cccc(-c2cnc3cc(OC)c(S(=O)(=O)C(C)(C)C)cn23)c1F",
    "Measured parameter": "pIC50",
    "Result": "< 7.70"
  },
  {
    "Compound smiles": "COc1cc2ncc(-c3ccc(C)c(N)n3)n2cc1S(=O)(=O)C(C)(C)C",
    "Measured parameter": "pIC50",
    "Result": "< 7.70"
  },
  {
    "Compound smiles": "COc1cc2ncc(-c3cc(N)nc(F)c3)n2cc1S(=O)(=O)C(C)(C)C",
    "Measured parameter": "pIC50",
    "Result": "> 9.00"
  },
  {
    "Compound smiles": "COc1cc2ncc(-c3cc(F)nc(NC[C@@H](O)CO)c3)n2cc1S(=O)(=O)C(C)(C)C",
    "Measured parameter": "pIC50",
    "Result": "> 9.00"
  },
  {
    "Compound smiles": "COc1cc2ncc(-c3cnc(OC(F)F)c(N)c3)n2cc1S(=O)(=O)C(C)(C)C",
    "Measured parameter": "pIC50",
    "Result": "< 7.70"
  }
]

Looking for the measured pIC50 of "COc1cc2ncc(-c3ccc(N(C)C)nc3F)n2cc1S(=O)(=O)C(C)(C)C" , can you help?
< 7.70

Try the compound "COc1cc(N)ncc1-c1cnc2cc(OC)c(S(=O)(=O)C(C)(C)C)cn12"
< 7.70

Then what about the compound "CCCS(=O)(=O)Nc1cc(-c2cnn3cc(OC)c(S(=O)(=O)C(C)(C)C)cc23)cc(OC)c1OC" ?
> 9.00

----------
Target: GST-RIPK2 fusion protein (human RIPK2 amino acids 1-310) (Homo sapiens (Human), UniProt O43353)
Measurement description: RIPK2 binding competition assay (TR-FRET, Tracer 199)
Experimental parameters: read-out: RIPK2 IC50; RIPK2 binding competition assay
Documented IC50 across a set of compounds

[
  {
    "Compound smiles": "COc1cc2ncc(-c3cc(Cl)ncc3C)n2cc1S(=O)(=O)C(C)(C)C",
    "IC50": "> 20 nM"
  },
  {
    "Compound smiles": "CCCS(=O)(=O)Nc1cc(OC)cc(-c2cnc3cc(OCC)c(S(=O)(=O)C(C)C)cn23)c1",
    "IC50": "< 1 nM"
  },
  {
    "Compound smiles": "CC(C)(C)S(=O)(=O)c1ccc2ncc(-c3cc(F)nc(F)c3)n2c1",
    "IC50": "> 20 nM"
  },
  {
    "Compound smiles": "COc1cc2ncc(-c3cc(F)nc(NCCOC(F)F)c3)n2cc1S(=O)(=O)C(C)(C)C",
    "IC50": "< 1 nM"
  },
  {
    "Compound smiles": "COc1cc2ncc(-c3cnc(N)c(C(F)F)c3)n2cc1S(=O)(=O)C(C)(C)C",
    "IC50": "> 20 nM"
  },
  {
    "Compound smiles": "COc1cc2ncc(-c3cc(F)nc(NCCC(C)(C)O)c3)n2cc1S(=O)(=O)C(C)(C)C",
    "IC50": "< 1 nM"
  }
]

Endpoint output: IC50 of "COc1cc2ncc(-c3cnc(N)c(C(F)(F)F)c3)n2cc1S(=O)(=O)C(C)(C)C" . Value?
> 20 nM

Try this compound next: "CNc1ccc(-c2cnc3cc(OC)c(S(=O)(=O)C(C)(C)C)cn23)cn1"
> 20 nM
